These entries and their values trace back to ChEMBL document CHEMBL1201862.

Test system: A498
Assay: NCI tumour cell line growth inhibition, 48 h
Activity calls are given as the source filed them. Rule as the data show it: active = GI50 up to about 1.1 µM and inactive = higher.
assay.readout: GI50

Some molecules with recorded GI50:
CC(=O)OCC1OC(SC2=N/C(=C\c3cc4c(=O)c5ccccc5sc4s3)C(=O)N2c2ccccc2)C(OC(C)=O)C(OC(C)=O)C1OC(C)=O (centres undefined) | > 100 µM (inactive)
Cc1ccc(S(=O)(=O)NC(CCC(=O)NN)C(=O)NN)cc1 (centres undefined) | > 100 µM (inactive)
Cn1c(=O)c2c(nc3n(Cc4ccccc4)c(=O)c(NCCCBr)cn23)n(C)c1=O | > 100 µM (inactive)

Now for another entry.
Supply GI50 value. Item: COc1cc2cc(C(=O)N3CC(CCl)c4ccc([N+](C)(C)Cc5ccc([N+](=O)[O-])cc5)cc43)[nH]c2c(OC)c1OC (centres undefined) 1.76 µM (inactive)

* * *

Test system: A549
Assay: NCI tumour cell line growth inhibition, 48 h
Activity calls are given as the source filed them. Cut-off read from the data, not from the text of the source: active = GI50 up to about 1.1 µM and inactive = higher.
Thanks in advance; please answer with one of these: active, inactive

Cc1ccc(C=C(C(=O)O)C(=O)O)o1 | inactive

Short answer needed: outcome of this test for COC(=O)Cc1cc(=O)[nH]c2c1C(=O)CCC2 ? inactive

For COc1ccc(Cc2c(=O)[nH]nc3ccccc23)cc1 , which call appears in the assay record? inactive

Test call, this compound: Cc1cc(O)c2c3c(ccc2c1)C(=O)c1c(O)cccc1C3=O inactive

Dear colleague, could you share the recorded outcome for Cc1ccccc1SC(/C=C/NNC1=NN=C(c2ccccc2)C(c2ccccc2)N1)c1ccccc1 (stereo unspecified) when you have a moment? inactive

Would you mind telling me which call this test gave CCOP(=O)(OCC)C(=C1C=C(C(C)(C)C)C(=O)C(C(C)(C)C)=C1)P(=O)(OCC)OCC ? inactive

Just curious, what result did CS(=O)(=O)Nc1ccc(N2Cc3c[nH]c4ccc5nccc2c5c34)cc1 get here? inactive

Which outcome was entered for the compound NCC(=O)C(O)C(O)C(O)CO (stereo unspecified) in this test? inactive

Dear all, I need the recorded test outcome for C=C(CC(NC(=O)c1ccc(C(CC)Cc2cnc3nc(N)nc(N)c3n2)cc1)C(=O)O)C(=O)O (stereo unspecified) , thank you. active

So what was the verdict on Nc1ccc(/N=N\c2ccc(-c3ccc(O)cc3)cc2)c2ccc(S(=O)(=O)O)cc12 in this test? inactive

Recorded test outcome, item O=C1c2ccccc2-c2c1c1ccccc1c(=O)n2Cc1ccco1 inactive

* * *

Test system: RXF 393
Test: NCI tumour cell line growth inhibition, 48 h
Calls of active or inactive are those of the source. Rule as the data show it: active = GI50 up to about 1.1 µM and inactive = higher.
assay.readout: GI50

Worked cases, answers included:
CCN(CC)CCCC(C)Nc1ccnc2cc(Cl)ccc12 (stereo not given) [CHLOROQUINE PHOSPHATE] | 2.4 µM (inactive)
Nc1nc(SCc2ccccc2Cl)c2ncn(C3OC(CO)C(O)C3O)c2n1 (stereo not given) | 28.6 µM (inactive)
N#Cc1c(-c2ccc([N+](=O)[O-])cc2)cc(-c2ccc(Nc3ccnc4cc(C(F)(F)F)ccc34)cc2)[nH]c1=O | > 100 µM (inactive)
CC1CC(C)CC(NC2=NCCO2)C1 (stereo not given) | > 100 µM (inactive)
C=C1c2nc3ccccc3n2C=C(c2ccc(C)cc2)N1c1ccc(C)cc1 | 25.9 µM (inactive)

GET GI50 where system = RXF 393 and item = COC(=O)[C@@H](O)[C@]1(C(=O)OC)C2O[C@@H](OC)[C@@H]1CCCCCC[C@H]2O > 100 µM (inactive)

Would you please give the reported GI50 of COC(=O)c1cc2c(cc1Cl)Sc1nnc(Nc3ccccc3)n1S2(=O)=O with RXF 393? 2.21 µM (inactive)

Please look at C/C(=N\N(C)C)C(CN(C)C)C(c1ccccc1)c1c(O)c2ccccc2oc1=O (stereo not given) and tell me its recorded GI50 on RXF 393. > 100 µM (inactive)

Specify the recorded GI50 for CC(C)[C@](O)(C(=O)OCC1CC[N+]2([O-])CC[C@@H](O)C12)[C@H](C)O (stereo not given in full) , system: RXF 393. > 375 µM (inactive)

With RXF 393 as the test system, provide measured GI50 for this compound: c1cc(C[S+]2CCCC2)oc1C[S+]1CCCC1 > 100 µM (inactive)

* * *

Test system: M14
Assay: NCI tumour cell line growth inhibition, 48 h
Calls of active or inactive are those of the source. Cut-off read from the data, not from the text of the source: active = GI50 up to about 1.1 µM and inactive = higher.
assay.readout: GI50

Worked cases, GI50 given:
FC1OC2OC1C(OCc1ccccc1)C(OCc1ccccc1)C2OCc1ccccc1 (stereo not given) | 28.1 µM (inactive)
Cc1c(C)c(S(=O)(=O)N(CCCCCN)OCCCN)c(C)c2c1OC(C)(C)CC2 | 27.7 µM (inactive)
CS(=O)(=O)Nc1ccc(N2Cc3c[nH]c4ccc5nccc2c5c34)cc1 | 15.5 µM (inactive)
COC(=O)C(C(=O)C(=O)Nc1ccc([N+](=O)[O-])cc1[N+](=O)[O-])c1nc2ccc(Cl)cc2nc1O (stereo not given) | > 100 µM (inactive)

Okay, now this compound:
# return recorded GI50 for entry c1c[nH]c(CN2CCOCC2)n1 > 100 µM (inactive)

* * *

Reported GI50 values follow for various molecules
Tested on: M14
Test: NCI tumour cell line growth inhibition, 48 h
Calls of active or inactive are those of the source. Rule as the data show it: active = GI50 up to about 1.1 µM and inactive = higher.

# count of solved cases: 2
CSCCC(NCc1c(O)ccc2c(-c3ccccc3)cc(=O)oc12)C(=O)O (stereo not drawn) | > 100 µM (inactive)
NC(=O)NC12CC3CC(CC(F)(C3)C1)C2 | > 100 µM (inactive)

Please report the measured GI50 for COc1cccc2c1[C@H]1CO[C@H]3C4C[C@H](C(=O)O)C([C@@H](C2)N13)N4C (stereo partly drawn) 4.99 µM (inactive)

* * *

Below is a list of entries, each paired with its recorded GI50 value.
System: XF498
Assay: NCI tumour cell line growth inhibition, 48 h
Active and inactive are the calls of the source. Rule as the data show it: active = GI50 up to about 1.1 µM and inactive = higher.

Nc1ncnc2c1nnn2C1OC(CO)C(O)C1O (centres undefined) | 6.98 µM (inactive)
CCOC(=O)CN1CCS/C1=N/C#N | > 100 µM (inactive)
CC(C)N(C(=O)C12C3C4C5(C#N)C3C1(I)C5C42I)C(C)C (centres undefined) | > 100 µM (inactive)
CC1=CC(O)C(O)C2(C)C1CC1OC(=O)C(O)C3C(C)C(O)C4(O)OCC13C42 (centres undefined) | 53.1 µM (inactive)
Cc1ccc(N2C(=O)CS/C2=C(\C#N)c2nc3ccccc3[nH]2)cc1 | > 100 µM (inactive)
CC[C@]12C=CCN3CC[C@@]4(c5ccc(OC)cc5N(C)[C@H]4[C@@](O)(C(=O)OC)[C@@H]1OC(C)=O)[C@@H]32 | > 172 µM (inactive)
C[Si](C)(C)C1(Sc2ccccc2)SCCCS1 | 28.4 µM (inactive)
CC#C[C@@]1(O)CCCCC1O (some centres undefined) | > 100 µM (inactive)

Continue with the next compound.
Complete the entry with GI50 for CCc1cccc(C)c1NC(=O)CCc1nnc2s/c(=C\c3cccc4ccccc34)c(=O)n12 > 100 µM (inactive)

* * *

Here the recorded GI50 is given for each entry.
Tested on: 786-0
Assay: NCI tumour cell line growth inhibition, 48 h
The source made the active and inactive calls. Rule as the data show it: active = GI50 up to about 1.1 µM and inactive = higher. Peptide text beside a SMILES is read from it. * marks the point of attachment. Cbz = O=C(OCc1ccccc1)*

Some compounds with known GI50 results, for comparison:
Cc1cc2ncc3c(=O)n(NS(=O)(=O)c4ccc(N)cc4)ccc3n2n1 | > 100 µM (inactive)
CCOC(=O)C(C)NC(=O)C(C)NC(=O)C(C)NC(=O)C(C)NC(=O)C(C)NC(=O)C(C)NC(=O)C(C)NC(=O)OCc1ccccc1 (centres undefined) (Cbz-AAAAAAA-OEt; configuration not given here) | > 100 µM (inactive)
[N-]=[N+]=CC(=O)CCC(N)C(=O)O (centres undefined) | 2.14 µM (inactive)
O=S(=O)(O)CS(=O)(=O)OCCCl | > 100 µM (inactive)
CC(=O)NC(CS/N=N/c1[nH]cnc1C(N)=O)C(=O)O (centres undefined) | 13 µM (inactive)
COc1ccc(CNc2nc(NCc3ccc(OC)cc3)nc(NC(C)C)n2)cc1 | 7.91 µM (inactive)

Recall the reported GI50 of CC(C)CCn1c(=O)c2c(=O)[nH][nH]c2c2ccccc21 when tested on 786-0. > 100 µM (inactive)

Name the recorded GI50 of NC1=NC(=O)C(CC(=O)Nc2ccc([N+](=O)[O-])cc2[N+](=O)[O-])S1 (centres undefined) , assay system 786-0. > 100 µM (inactive)

Recall the reported GI50 of O=C1C(Cl)=C(Oc2ccc([N+](=O)[O-])cc2)C(=O)c2c(O)ccc(O)c21 on 786-0 and write it down. 67.9 µM (inactive)

Lab note: 786-0 assay, enter GI50 for c1ccc2c(c1)c(N1CCCCC1)cc1nc3c(cc(N4CCCCC4)c4ccccc43)nc12 here > 100 µM (inactive)

Provide GI50, recorded with 786-0, of CCO[C@H]1C[C@@H](c2ccccc2)[C@]2(C)C[C@H](C(=O)OC)ON2O1 > 100 µM (inactive)

Under 786-0, report GI50 for Cc1c(-c2ccc(O)c(O)c2)oc(=O)c2c(O)cccc12 9.73 µM (inactive)

Fetch value of GI50 on 786-0 for O=c1c(SSc2coc3cc(F)ccc3c2=O)coc2cc(F)ccc12 . 10 µM (inactive)

Using 786-0 as the test system, report measured GI50 of S=c1sc2c(n1-c1ccccc1)N=CNC2S (centres undefined) . > 100 µM (inactive)

Give GI50 for Clc1ccc(CCNC2(c3cc4ccccc4s3)CCCCC2)cc1Cl tested on 786-0. 18.1 µM (inactive)

Provide 786-0 GI50 reading for COC(=O)C(=O)C(CC(=O)Nc1cccc(C(F)(F)F)c1)C(=O)OC (centres undefined) . > 100 µM (inactive)

# return GI50 of Cc1cc(C)nc(NS(=O)(=O)c2ccc(NNc3c4ccccc4nc4c(C(=O)Nc5ccc(S(N)(=O)=O)cc5)cccc34)cc2)n1 (system: 786-0) 66.5 µM (inactive)

Give GI50 only, for Nc1nc(=O)[nH]cc1F , using 786-0 data. > 100 µM (inactive)

State GI50 (786-0) of C[C@@H](c1ccccc1)N1C[C@@H](c2ccc3c(c2)OCO3)[C@@H]2C(=O)CCC[C@@H]21 . 75.2 µM (inactive)

State GI50 (786-0) of CCCCOP(=O)(OCCCC)C(NS(=O)(=O)c1ccccc1)(C(=O)OCC)C(F)(F)F (centres undefined) . 33.3 µM (inactive)

# return GI50 of N=C1/C(=C/c2ccco2)C(=O)N=C2SC=NN12 (system: 786-0) > 100 µM (inactive)

Using 786-0 as the test system, report measured GI50 of Cc1c(NC(=O)CCl)c(=O)oc2c(C)c3occc(=O)c3cc12 . 13.9 µM (inactive)

Report GI50 from 786-0 testing of CC(=O)Nc1nnc(S(=O)(=O)NC(=S)Nc2ccc(Cl)cc2)s1 > 100 µM (inactive)

For 786-0, give the measured GI50 of the entry Cc1ccc(-n2cc(-c3ccc(Cl)cc3)c3c(NNC(=S)NCc4ccccc4)ncnc32)cc1 9.77 µM (inactive)
